- Experimental Target: hFXR (Homo sapiens, UniProt Q96RI1)
- Sequence (Q96RI1 1-486): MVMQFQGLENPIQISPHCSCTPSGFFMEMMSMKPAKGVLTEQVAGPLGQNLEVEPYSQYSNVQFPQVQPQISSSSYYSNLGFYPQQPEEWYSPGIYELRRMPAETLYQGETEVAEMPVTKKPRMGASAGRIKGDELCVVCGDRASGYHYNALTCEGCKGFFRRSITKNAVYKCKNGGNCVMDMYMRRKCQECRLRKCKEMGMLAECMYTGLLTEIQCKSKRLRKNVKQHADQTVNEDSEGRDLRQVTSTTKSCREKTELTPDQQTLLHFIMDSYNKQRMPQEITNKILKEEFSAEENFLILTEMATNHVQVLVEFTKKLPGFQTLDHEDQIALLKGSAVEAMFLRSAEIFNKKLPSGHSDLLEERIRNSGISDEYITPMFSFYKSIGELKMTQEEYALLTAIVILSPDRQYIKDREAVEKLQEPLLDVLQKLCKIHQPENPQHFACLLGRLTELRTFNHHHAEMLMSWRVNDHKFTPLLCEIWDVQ
- Sequence (P19793 1-462 partner): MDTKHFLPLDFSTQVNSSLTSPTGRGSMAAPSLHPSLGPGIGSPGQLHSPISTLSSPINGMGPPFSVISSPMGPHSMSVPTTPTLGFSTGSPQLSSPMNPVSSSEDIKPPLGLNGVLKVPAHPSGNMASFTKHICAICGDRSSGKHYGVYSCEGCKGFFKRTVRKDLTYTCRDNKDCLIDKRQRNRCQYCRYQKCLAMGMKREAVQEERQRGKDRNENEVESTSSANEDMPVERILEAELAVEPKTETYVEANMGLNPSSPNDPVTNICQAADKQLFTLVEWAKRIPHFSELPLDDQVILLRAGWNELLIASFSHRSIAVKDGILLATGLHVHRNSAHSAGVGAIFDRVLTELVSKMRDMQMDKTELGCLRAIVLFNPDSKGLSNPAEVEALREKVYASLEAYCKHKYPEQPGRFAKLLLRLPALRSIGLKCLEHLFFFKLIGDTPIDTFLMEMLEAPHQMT
- Experiment Summary: In Vitro FXR Assay (TK): TK-ECRE-luc reporter in transfected CV-1 cells
- Condition Notes: 18 hrs incubation, luminescence
Reported EC50 by item:
Endpoint Label: EC50

- Compound: "COc1ccc(C23CCC(CN(c4cc(-c5cnc(C6CC6)o5)ccn4)C(=O)[C@H]4CC[C@H](OC(=O)N5CC(O)C5)CC4)(CC2)CC3)cc1C [Compound 4.24]"
  Value: "≤ 50 nM"
- Compound: "COc1ccc([C@H]2CC[C@H](CN(c3cc(-c4cnn(C(C)C)c4)ccn3)C(=O)[C@H]3CC[C@H](OC(=O)NC[C@@H](F)CO)CC3)CC2)cc1C [Compound 2.41]"
  Value: "≤ 50 nM"
- Compound: "COc1ccc([C@H]2CC[C@H](CN(c3cc(-c4cnc(C5CC5)o4)ccn3)C(=O)[C@H]3CC[C@H](OC(=O)N4CC(O)C4)CC3)CC2)cc1C [Compound 2.01]"
  Value: "≤ 50 nM"
- Compound: "COc1ccc([C@H]2CC[C@H](CN(c3cc(-c4cc(C5CC5)on4)ccn3)C(=O)[C@H]3CC[C@H](OC(=O)N4CC(O)C4)CC3)CC2)cc1C [Compound 2.09]"
  Value: "≤ 50 nM"
- Compound: "CCc1nc(-c2ccnc(N(CC34CCC(c5ccc(OC)c(C)c5)(CC3)CC4)C(=O)[C@H]3CC[C@H](OC(=O)N4CC(O)C4)CC3)c2)co1 [Compound 4.22]"
  Value: "≤ 50 nM"
- Compound: "COc1ccc(C23CCC(CN(c4ccc(F)c(-c5cnn(C(C)C)c5)c4)C(=O)[C@H]4CC[C@H](OC(=O)NCCCO)CC4)(CC2)CC3)cc1C [Compound 25.08]"
  Value: "≤ 50 nM"
- Compound: "COc1ccc([C@H]2CC[C@H](CN(c3cccc(-c4cnn(C(C)C)c4)c3)C(=O)[C@H]3CC[C@H](NC(=O)OC4CCN(C)CC4)CC3)CC2)cc1C [Compound 6.08]"
  Value: "50 to 1000 nM"
- Compound: "COc1ccc([C@H]2CC[C@H](CN(c3cc(-c4cnc(C(C)C)s4)ccn3)C(=O)[C@H]3CC[C@H](OC(=O)N4CCN(C)CC4)CC3)CC2)cc1C [Compound 2.40]"
  Value: "≤ 50 nM"
- Compound: "COc1ccc([C@H]2CC[C@H](CN(c3cc(-c4cnc(C5CC5)s4)ccn3)C(=O)[C@H]3CC[C@H](OC(=O)NC(C)C)CC3)CC2)cc1C [Compound 2.45]"
  Value: "≤ 50 nM"
- Compound: "COc1ccc([C@H]2CC[C@H](CN(c3cc(-c4cnc(C(C)C)s4)ccn3)C(=O)[C@H]3CC[C@H](OC(=O)NCC(C)(C)O)CC3)CC2)cc1C [Compound 2.10]"
  Value: "≤ 50 nM"
- Compound: "COc1ccc([C@H]2CC[C@H](CN(c3cc(-c4cnn(C(C)C)c4)ccn3)C(=O)[C@H]3CC[C@H](OC(=O)N4CCNCC4)CC3)CC2)cc1C [Compound 2.15]"
  Value: "50 to 1000 nM"

These measurements were taken from patent US20220056019A1.
